This listing pairs sequences with measured furin cleavage Z-score.
# measured on: furin, P09958
# Sequence (P09958 whole entry): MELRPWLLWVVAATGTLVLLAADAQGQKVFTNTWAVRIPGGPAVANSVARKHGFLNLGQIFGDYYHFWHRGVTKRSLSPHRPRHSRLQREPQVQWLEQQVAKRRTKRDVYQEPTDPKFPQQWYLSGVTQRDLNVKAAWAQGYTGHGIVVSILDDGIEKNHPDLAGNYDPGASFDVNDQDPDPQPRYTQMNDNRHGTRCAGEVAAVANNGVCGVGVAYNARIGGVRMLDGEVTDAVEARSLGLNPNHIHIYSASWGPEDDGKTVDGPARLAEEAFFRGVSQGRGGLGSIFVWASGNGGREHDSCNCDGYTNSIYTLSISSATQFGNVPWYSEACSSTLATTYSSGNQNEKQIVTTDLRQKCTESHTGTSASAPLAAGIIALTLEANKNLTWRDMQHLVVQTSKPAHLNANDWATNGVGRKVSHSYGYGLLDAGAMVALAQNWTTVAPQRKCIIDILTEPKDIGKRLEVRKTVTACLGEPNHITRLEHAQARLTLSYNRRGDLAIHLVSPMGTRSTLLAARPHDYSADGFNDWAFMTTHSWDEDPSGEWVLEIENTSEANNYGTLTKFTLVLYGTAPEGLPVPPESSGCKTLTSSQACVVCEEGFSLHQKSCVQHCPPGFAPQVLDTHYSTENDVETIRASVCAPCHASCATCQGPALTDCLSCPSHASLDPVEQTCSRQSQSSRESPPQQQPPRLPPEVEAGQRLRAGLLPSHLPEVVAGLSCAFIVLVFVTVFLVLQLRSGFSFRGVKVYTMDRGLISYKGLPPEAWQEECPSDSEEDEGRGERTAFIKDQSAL
# test details: furin cleavage Z-score vs untreated control; higher = more cleavage, active = 3.5 or more, inactive = 1 or less, 8 variable residues between constant flanks;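 further: purified furin at 1:10 enzyme:substrate in 50 mM HEPES pH 7.5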
# recorded conditions: 15 min
This is one part of the list. The true hit rate is not given.
Could you respond with only the numeric value?

Illustrative cases are given below, each with its answer.
CANGSWHLNSAGNASASA [HC369]: 2.38
CAMRECSQHLAGNASASA [HC1693]: 1.41
CANQVEGEVQAGNASASA [HC687]: -0.19
CAVRTRIKRSAGNASASA [FS-1179]: 13.6
CACSQHLPYIAGNASASA [HC1016]: -4.19

Please look up its furin cleavage Z-score: CAEKSRAKRQAGNASASA [FS-231]
8.1

Please look up its furin cleavage Z-score: CAIVVTSTWVAGNASASA [HC2144]
-0.196
